B1: Osa-1-4 twister ribozyme (parent)
chain: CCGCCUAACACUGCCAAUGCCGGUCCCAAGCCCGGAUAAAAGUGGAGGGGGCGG

# Variants of: B1
# experiment_summary: self-cleavage, relative activity (ratio to wild type); higher = more cleavage; co-transcriptional
For each record, write down the corresponding self-cleavage.
Answers are plain numbers.

{"mutation_name": "G19U U18C", "reported_value": 0.36}
{"mutation_name": "A17U G22A", "reported_value": 1.04}
{"mutation_name": "C15A G23C", "reported_value": 0.03}
{"mutation_name": "A10G A38C", "reported_value": 0.91}
{"mutation_name": "G35C G49C", "reported_value": 0.05}

Could I get self-cleavage for every one of these entries?
1. G45A G51C
2. G49U G51C

0.06
0.06

Could I get self-cleavage for every one of these entries?
1. A7U C21U
2. A41U C15A
3. A10G G42U
4. A41G G22U

1: 0.1; 2: 0.26; 3: 0.06; 4: 0.27
